Target: P. falciparum apicoplast DNA polymerase (Pf-apPOL) (Plasmodium falciparum)
Sequence (Q8ILY1 entry or part of it): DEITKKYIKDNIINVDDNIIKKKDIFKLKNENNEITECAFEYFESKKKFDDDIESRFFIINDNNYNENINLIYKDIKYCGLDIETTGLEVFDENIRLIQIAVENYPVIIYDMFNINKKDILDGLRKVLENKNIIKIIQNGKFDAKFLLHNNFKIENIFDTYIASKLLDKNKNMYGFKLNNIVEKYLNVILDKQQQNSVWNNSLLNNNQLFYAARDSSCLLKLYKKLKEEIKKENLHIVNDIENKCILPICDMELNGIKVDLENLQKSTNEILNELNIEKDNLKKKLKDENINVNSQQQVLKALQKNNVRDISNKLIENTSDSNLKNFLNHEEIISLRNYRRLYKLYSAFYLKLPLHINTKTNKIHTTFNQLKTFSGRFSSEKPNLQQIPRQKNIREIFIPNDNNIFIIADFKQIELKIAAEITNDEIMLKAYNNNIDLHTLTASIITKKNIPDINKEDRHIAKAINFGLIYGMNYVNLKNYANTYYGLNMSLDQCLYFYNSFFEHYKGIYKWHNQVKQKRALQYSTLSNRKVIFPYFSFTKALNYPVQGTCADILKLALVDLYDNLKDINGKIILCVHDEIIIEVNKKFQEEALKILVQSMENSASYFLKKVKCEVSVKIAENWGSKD
Assay: Fluorescence-based high-throughput DNA polymerase assay (molecular beacon), primary screen and dose-response;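 note: test concentration in µM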
Type: biochemical
Conditions: DRC-2; concentration 5; 90'
Text: The HT assay employs a molecular beacon, a stem-loop DNA template with a Cy3 dye and the Black Hole Quencher on the 3′ and 5′ ends of the DNA, respectively. Pf-apPOL concentration is based on a calculated absorptivity of ε280 = 56750 M^−1 cm^−1. […] To identify apPOL inhibitors we utilised our previously developed high-throughput DNA polymerase assay. […] The assay accurately recapitulates the kinetic behaviour of apPOL, as measured through more conventional low-throughput gel-based assays. […]
# % inhibition ApPOL 90' >= 10% gives label 1, anything below gives label 0

compound	class.label
O=C(Cc1cccs1)N1CCN(c2nc(CN3CCOCC3)cs2)CC1 [Molecule 35]	label 1
Nc1ncnc(NC2CCCCC2)c1[N+](=O)[O-] [KU0193018]	label 0
Oc1cccnc1/N=C/c1cc(I)cc(I)c1O [KU0073720]	label 1
CCc1ccccc1NC(=O)c1ccc(-c2ncccc2NC(C)=O)cc1 [KU0203112]	label 0
CCOc1ccc2cc(C3=NN(C(=O)CCC(=O)O)C(c4ccc(C)cc4)C3)c(=O)[nH]c2c1 (stereo not drawn) [KU0056200]	label 0
O=C(Cn1ccc2c(=O)[nH]ccc21)Nc1ccccc1Cl [Molecule 19, O=C(Cn1ccc2c1cc[nH]c2=O)Nc1ccccc1Cl]	label 1
Cc1ccnc(NS(=O)(=O)c2ccc(-n3cccc3)cc2)n1 [KU0034899]	label 1
COc1ccc(-c2occ(C(=O)O)c2C(=O)O)cc1 [KU0021536]	label 1
O=C1c2ccccc2C(=O)c2c1oc1c3c(ccc21)OCN(C1CCCC1)C3 [KU0064306]	label 1
O=C(O)c1nc(-c2ccccc2)nc2c1OCO2 [Molecule 45, OC(=O)c1nc(nc2c1OCO2)c1ccccc1]	label 0
O=[N+]([O-])c1ccc(SCc2ccco2)c2cccnc12 [KU0034480]	label 1
CCCCCc1c2c(cc(O)c1C(=O)O)OC(=O)c1c(cc(OC)cc1C(=O)CCCC)O2 [Molecule 24]	label 1
